Where do the numbers come from? From patent US20200024330A1.

- study.target: HIV-1 JR-CSF Env S393A (HIV-1 (isolate JR-CSF)) (UniProt P20871)
- test.protocol: cell-based or functional assay
attribute.measured: Fold IC50 increase relative to wild-type (fold)
Write it as a number; the unit fold goes unstated.

binder: PGT-130 (antibody, V domains shown) VH: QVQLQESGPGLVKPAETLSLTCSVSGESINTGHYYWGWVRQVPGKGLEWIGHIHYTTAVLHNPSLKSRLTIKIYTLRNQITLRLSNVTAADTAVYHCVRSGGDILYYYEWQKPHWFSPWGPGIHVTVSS VL: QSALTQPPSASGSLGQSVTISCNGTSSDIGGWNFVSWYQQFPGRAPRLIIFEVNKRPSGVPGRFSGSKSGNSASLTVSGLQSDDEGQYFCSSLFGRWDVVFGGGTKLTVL
Fold IC50 increase relative to wild-type [fold]: 0.7

Moving on to the next binder.
Fill blank: measured Fold IC50 increase relative to wild-type of the binder PGT-128 (antibody, V domains shown) VH: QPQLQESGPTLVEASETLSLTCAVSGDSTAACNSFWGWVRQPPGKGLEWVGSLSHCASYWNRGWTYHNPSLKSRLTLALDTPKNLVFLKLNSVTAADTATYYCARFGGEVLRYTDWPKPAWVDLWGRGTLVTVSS VL: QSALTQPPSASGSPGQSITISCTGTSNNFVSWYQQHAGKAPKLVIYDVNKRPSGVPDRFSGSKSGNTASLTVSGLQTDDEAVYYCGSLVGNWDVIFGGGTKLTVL is ____.
1.4
